biological target: OXA-24/40 (Acinetobacter baumannii); assay: biochemical
MEASURED PROPERTY: pKd
A value of pKd is the negative decimal logarithm of a concentration given in moles per litre.

**Query** Give the measured pKd of N#C[C@@H]1CC[C@@H]2CN1C(=O)N2OS(=O)(=O)[O-].[Na+] .
**Result** 7.38

----------
target: ADC-7 (Acinetobacter baumannii)
MEASURED PROPERTY: pKd
A value of pKd is the negative decimal logarithm of a concentration given in moles per litre.

**Query** Give the measured pKd of N#C[C@@H]1CC[C@@H]2CN1C(=O)N2OS(=O)(=O)[O-].[Na+] [Compound 3] .
**Result** 7.28

Origin of measurements: paper PMC6131718
